Target: T1, recombinant cynomolgus monkey (Macaca fascicularis) transferrin receptor 1 (cynomolgus monkey (Macaca fascicularis), UniProt Q5RDH6 87-760 (Pongo abelii entry), limits assumed)
T1 construct: also called cTfR1; cyno TfR1
T1 chain: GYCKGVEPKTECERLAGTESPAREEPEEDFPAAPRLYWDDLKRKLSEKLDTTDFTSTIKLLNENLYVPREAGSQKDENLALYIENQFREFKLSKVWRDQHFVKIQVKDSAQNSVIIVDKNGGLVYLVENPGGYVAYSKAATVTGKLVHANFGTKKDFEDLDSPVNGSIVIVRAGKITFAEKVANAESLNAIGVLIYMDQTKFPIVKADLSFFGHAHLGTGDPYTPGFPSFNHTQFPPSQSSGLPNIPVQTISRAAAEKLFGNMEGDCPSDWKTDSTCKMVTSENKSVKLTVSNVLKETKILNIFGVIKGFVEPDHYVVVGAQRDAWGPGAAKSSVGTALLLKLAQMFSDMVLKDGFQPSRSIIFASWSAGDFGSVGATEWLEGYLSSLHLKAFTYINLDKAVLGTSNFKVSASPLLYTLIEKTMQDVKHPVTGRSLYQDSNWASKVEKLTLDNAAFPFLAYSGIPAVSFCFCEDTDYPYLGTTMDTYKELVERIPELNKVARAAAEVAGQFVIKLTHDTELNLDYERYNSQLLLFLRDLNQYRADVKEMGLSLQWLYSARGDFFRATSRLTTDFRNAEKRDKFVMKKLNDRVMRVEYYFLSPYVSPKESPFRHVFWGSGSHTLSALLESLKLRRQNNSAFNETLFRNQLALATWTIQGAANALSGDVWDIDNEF
Experiment: ELISA, Fab-ASO300 conjugate; printed as 'DMPK oligo conjugate binding to cyno TfR1 (nM)'
Measurement name: pEC50
Answer as the number alone; pEC50 is minus log10 of concentration in mol/L.

Fill blank: measured pEC50 of the binder 3M12 (VH3/Vk2) Fab conjugated to DMPK-targeting oligonucleotide ASO300 (Fab, V domains shown, ASO300 oligonucleotide covalently conjugated via linker of Formula (C); residue and chain not stated, also called 3M12 (VH3/Vk2) conjugate; DMPK oligo conjugate) VH: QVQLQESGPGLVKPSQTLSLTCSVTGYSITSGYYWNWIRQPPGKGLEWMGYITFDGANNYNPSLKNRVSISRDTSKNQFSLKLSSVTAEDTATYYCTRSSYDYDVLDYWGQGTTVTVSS VL: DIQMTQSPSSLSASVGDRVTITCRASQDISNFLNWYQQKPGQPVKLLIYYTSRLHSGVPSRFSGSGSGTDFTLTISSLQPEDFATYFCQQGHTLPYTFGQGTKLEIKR is ____. 8.65

Value source: patent US20230044278A1
